Just for reference, the supplement of paper PMC10567573 is where these values come from.

B1: ANKRD9 (parent)
chain: LLEDMRASEAFHWDERGRAAAYSP

- Variants of: B1
- procedure-summary: protein stability index of a GFP-peptide fusion (GPS, HEK-293T) (PSI 1-6); higher = more stable;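 also: lentivirally expressed fusions sorted by FACS into six bins by GFP to DsRed ratio, PSI derived from sequencing read proportions per bin multiplied by bin number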
- reported-conditions: c terminus: a fixed tail appended
Note to self: values exactly at 2 are Satisfied. So protein stability index at or above 2 is Satisfied, below is Not satisfied.

• P24N = Satisfied
• L2Q = Satisfied
• A10S = Not satisfied
• R18T = Not satisfied
• R18M = Satisfied
• A10H = Satisfied
• S23V = Satisfied
• W13A = Satisfied
• L2Y = Not satisfied
• A7T = Satisfied
• L2I = Satisfied
• E9I = Not satisfied
• L1A = Satisfied
• W13L = Satisfied
• G17W = Not satisfied
• E9G = Satisfied
• A21P = Not satisfied
• L2D = Satisfied
• M5A = Satisfied
• Y22E = Satisfied
• A21N = Satisfied
• S8N = Satisfied
• A19C = Satisfied
• G17C = Satisfied
• S8P = Satisfied
• E15H = Satisfied
• A20M = Satisfied
• R18K = Not satisfied
• A10M = Not satisfied
• A21W = Not satisfied
• D4T = Satisfied
• A19Y = Not satisfied
• E3L = Satisfied
• D14N = Satisfied
• S8C = Satisfied
• W13C = Satisfied
• L1M = Satisfied
• M5E = Satisfied
• Y22K = Satisfied
• R6Y = Satisfied
• W13M = Not satisfied
• R18A = Satisfied
• P24Y = Not satisfied
• E3A = Satisfied
• L1W = Satisfied
• A20P = Not satisfied
• L2T = Satisfied
• L1T = Satisfied
• A20D = Satisfied
• G17T = Not satisfied
• E15M = Not satisfied
• L2V = Satisfied
• A20L = Satisfied
• M5Q = Satisfied
• S8Q = Satisfied
• P24E = Satisfied
• M5I = Satisfied
• D14M = Satisfied
• A7M = Satisfied
• S23L = Satisfied
• F11M = Satisfied
• L1Q = Satisfied
• S23F = Not satisfied
• A10E = Not satisfied
• E3D = Not satisfied
• P24K = Not satisfied
• A20Q = Not satisfied
• E15C = Satisfied
• M5G = Satisfied
• H12D = Satisfied
• A19D = Not satisfied
• F11N = Satisfied
• M5T = Satisfied
• M5Y = Satisfied
• A7L = Satisfied
• A19T = Not satisfied
• S23Q = Satisfied
• S23R = Not satisfied
• P24S = Satisfied
